Test system: biotinyl-Trp-oxazolone
assay-remarks: self-aminoacylation, catalytic enhancement (BWO) (fold over background); higher = more active; k-Seq, kA / k0A0; sequences stand for … in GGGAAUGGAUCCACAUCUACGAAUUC…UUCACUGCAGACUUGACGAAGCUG
Fewer inactive variants are shown than the library holds.
Decision: self-aminoacylation compared against 2; not below it gives met, below it gives not met.

> print(dat)
                               sequence.data    label
 1  GUUACCCUGGUCAUCGAGUAA [Fam2.1 aminoacylation ribozyme variant]      met
 2  CUUCAGCUAGGUCAUCGGGUG [Fam2.2 aminoacylation ribozyme variant]      met
 3  AAGUUUUCUAAUAGUCACAAG [Fam3.1 aminoacylation ribozyme variant]  not met
 4  AUUAUCCUGGUCAGCGAGUGA [Fam2.1 aminoacylation ribozyme variant]      met
 5  AUAACCCUGGUCAUCGAAUGA [Fam2.1 aminoacylation ribozyme variant]  not met
 6  ACUACCCUGGUCAUCGAGCGA [Fam2.1 aminoacylation ribozyme variant]  not met
 7  CUCCUUCAACCAAUCGGUCUG [Fam1A.1 aminoacylation ribozyme variant]      met
 8  CUACGUCAAACAUUCGGUCUG [Fam1A.1 aminoacylation ribozyme variant]      met
 9  AAGUUUGCUUAUAGUCGCAAG [Fam3.1 aminoacylation ribozyme variant]  not met
10  CUACUCCAAACAAUCGGCCUG [Fam1A.1 aminoacylation ribozyme variant]      met
11  CGACACUUAAAGCAAUCGGUC [Fam1B.1 aminoacylation ribozyme variant]  not met
12  AUUCACCUAGGACGUCGGGUG [Fam2.2 aminoacylation ribozyme variant]  not met
13  CGACACUUCAAGCAAUCUGUC [Fam1B.1 aminoacylation ribozyme variant]  not met
14  AAGUCUGCUAAUCGUCGCAAG [Fam3.1 aminoacylation ribozyme variant]  not met
15  AUUAACCUGGGUCAUCGGGUG [Fam2.2 aminoacylation ribozyme variant]      met
16  CUACUUCAGACAAUCCGUCUG [Fam1A.1 aminoacylation ribozyme variant]  not met
17  AUUACCCUGCUCAUCGAGUGG [Fam2.1 aminoacylation ribozyme variant]  not met
18  AUUACCCAGGUCAUCGAGUGG [Fam2.1 aminoacylation ribozyme variant]  not met
19  AAGUUUGCUAAUAGUCUUAAG [Fam3.1 aminoacylation ribozyme variant]      met
20  CGACUUCAAACAAUCUGUCUG [Fam1A.1 aminoacylation ribozyme variant]  not met
21  CUACUUCAAACAAGCCGUCUG [Fam1A.1 aminoacylation ribozyme variant]  not met
22  CCUCUUCAAACAAUCGGUCUG [Fam1A.1 aminoacylation ribozyme variant]      met
23  AUUACCCUGGUCAUUUAGUGA [Fam2.1 aminoacylation ribozyme variant]      met
24  CCAGACUUCAAGCAAUCGGUU [Fam1B.1 aminoacylation ribozyme variant]      met
25  AUUCACCUAGGGCAUCCGGUG [Fam2.2 aminoacylation ribozyme variant]      met
26  AAGUUUGCUAAUAGUCGCAUA [Fam3.1 aminoacylation ribozyme variant]  not met
27  AAGUUCGCUAAUCGUCGCAAG [Fam3.1 aminoacylation ribozyme variant]      met
28  ACUACCCUGGUCAUCGUGUGA [Fam2.1 aminoacylation ribozyme variant]      met
29  AUUCACGUAGGCCAUCGGGUG [Fam2.2 aminoacylation ribozyme variant]      met
30  GUUCACCUGGGUCAUCGGGUG [Fam2.2 aminoacylation ribozyme variant]      met
31  CGACUUCAAACAAUCGGGCUG [Fam1A.1 aminoacylation ribozyme variant]      met
32  AUUCAUCUAGGUCAUCGUGUG [Fam2.2 aminoacylation ribozyme variant]  not met
33  AUUCACUUAGGUUAUCGGGUG [Fam2.2 aminoacylation ribozyme variant]      met
34  CUACUCCAAACAAUCGGUGUG [Fam1A.1 aminoacylation ribozyme variant]  not met
